Biological target: AD brain tissue (Homo sapiens, UniProt P05067)
Sequence (P05067 whole entry): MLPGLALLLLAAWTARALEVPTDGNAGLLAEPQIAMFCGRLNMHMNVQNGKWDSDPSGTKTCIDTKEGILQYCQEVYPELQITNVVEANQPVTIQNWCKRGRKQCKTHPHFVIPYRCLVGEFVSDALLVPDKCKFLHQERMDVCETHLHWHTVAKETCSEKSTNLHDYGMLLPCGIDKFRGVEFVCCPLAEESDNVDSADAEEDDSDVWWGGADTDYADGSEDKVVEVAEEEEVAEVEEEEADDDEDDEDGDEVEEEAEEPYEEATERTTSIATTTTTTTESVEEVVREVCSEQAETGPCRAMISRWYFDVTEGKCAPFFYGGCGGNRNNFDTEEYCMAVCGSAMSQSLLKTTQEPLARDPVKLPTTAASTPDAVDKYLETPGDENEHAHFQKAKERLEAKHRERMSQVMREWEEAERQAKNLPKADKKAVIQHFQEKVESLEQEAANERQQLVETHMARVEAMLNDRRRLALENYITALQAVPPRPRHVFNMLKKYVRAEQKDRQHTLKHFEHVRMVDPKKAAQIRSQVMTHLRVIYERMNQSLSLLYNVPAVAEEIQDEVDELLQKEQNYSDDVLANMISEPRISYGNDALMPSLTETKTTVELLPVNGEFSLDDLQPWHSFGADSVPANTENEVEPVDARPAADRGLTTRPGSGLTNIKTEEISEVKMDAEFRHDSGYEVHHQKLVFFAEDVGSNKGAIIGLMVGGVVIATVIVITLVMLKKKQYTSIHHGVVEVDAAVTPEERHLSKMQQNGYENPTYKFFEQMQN
Experiment: Competitive binding in AD brain tissue vs [3H]PiB
Conditions: maximal inhibition of [3H]PiB binding in AD brain tissue
assay-metric: max % Inh_PiB (%)

Known results for compounds:
| compound-structure-string | max % Inh_PiB / % |
| --- | --- |
| COc1ccc(Nc2ccc3cc(OC/C=C/I)ccc3n2)cn1 | 90 |
| CCOc1ccc(Nc2ccc3cc(OCCF)ccc3n2)cn1.Cl | 40 |
| COc1ccc(Nc2ccc3cc(OCc4cccnc4)ccc3n2)cn1.Cl | 80 |
| COc1cccc(COc2ccc3nc(Nc4ccc(OC)nc4)ccc3c2)c1 | 100 |

a = COc1ccc(Nc2ccc3ccc(N)cc3n2)cn1
b = COc1ccc2nc(Nc3cc(-c4ccccc4)n[nH]3)ccc2c1
c = COc1ccc(Nc2ccc3cc(OCc4ccncc4)ccc3n2)cn1
d = CC(C)Oc1ccc(Nc2ccc3cc(OCCF)ccc3n2)cn1
Request: In this exercise, place the 4 compounds in ascending sequence of their recorded max % Inh_PiB. Put the labels in the requested order and write them down.
Response: d, a, c, b
(d: 20%, a: 30%, c: 60%, b: 100%)

---

Target: alpha-synuclein fibrils (Homo sapiens)
Assay: Competitive binding to alpha-synuclein fibrils vs [3H]BF2846 (site 9)
Conditions: maximal inhibition of [3H]BF2846 binding to alpha-synuclein fibrils
assay-metric: max % inh_site9 (%)

a = COc1ccc(Nc2ccc3cc(OCCF)ccc3n2)cn1.Cl [TZ80-55]
b = CCc1ccc(Nc2ccc3cc(OCCN4CCCCC4)ccc3n2)cn1 [TZ80-30]
Request: For a and b , which recorded max % inh_site9 is lower? Answer = label.
Response: a
(a: 70%, b: 100%)

---

Target: alpha-synuclein fibrils (Homo sapiens)
Test: Competitive binding to alpha-synuclein fibrils vs [3H]BF2846 (site 9)
Settings: maximal inhibition of [3H]BF2846 binding to alpha-synuclein fibrils
assay-metric: max % inh_site9 (%)

| compound-structure-string | value-measured |
| --- | --- |
| COc1ccc2nc(Nc3cc(-c4ccccc4)n[nH]3)ccc2c1 | 40 |

a = CC(C)Oc1ccc(Nc2ccc3cc(OCCF)ccc3n2)cn1
b = COc1ccc(Nc2ccc3cc(O)ccc3n2)cn1
c = COc1ccc(Nc2ccc3cc(OC/C=C/CF)ccc3n2)cn1
Request: In this exercise, place the 3 compounds in ascending sequence of their recorded max % inh_site9. Put the labels in the requested order and write them down.
Response: b, a, c
(b: 20%, a: 60%, c: 100%)

---

Molecular target: AD brain tissue (Homo sapiens)
Assay: Competitive binding in AD brain tissue vs [3H]PiB
Conditions: maximal inhibition of [3H]PiB binding in AD brain tissue
assay-metric: max % Inh_PiB (%)

| molecule | assay-metric | value-measured |
| --- | --- | --- |
| CCc1ccc(Nc2ccc3cc(OCCN4CCCCC4)ccc3n2)cn1 [TZ80-30] | max % Inh_PiB | 80 |
| COc1ccc2nc(Nc3ccc4cn[nH]c4c3)ccc2c1 [TZ88-21] | max % Inh_PiB | 100 |

I = COc1ccc(Nc2ccc3cc(OC)ccc3n2)cc1 [TZ90-8]
II = COc1ccc(Nc2nc3ccccc3cc2N)cn1 [TZ64-73]
Request: For I and II , which recorded max % Inh_PiB is lower? Answer = label.
Response: II
(II: 30%, I: 100%)

---

Target: alpha-synuclein fibrils (Homo sapiens, UniProt P37840)
Assay: Competitive binding to alpha-synuclein fibrils vs [3H]BF2846 (site 9)
Details: alpha-synuclein fibrils, radioligand [3H]BF2846, binding site 9; read-out: Ki (nM), in a-syn fibrils v.s. [3H]BF2846
assay-metric: Ki (nM)

Known results for molecules:
| compound-structure-string | value-measured |
| --- | --- |
| COc1ccc(Nc2ccc3ccc(N)cc3n2)cn1 | 3.07 |
| COc1ccc(Nc2ccc3cc(O)ccc3n2)cn1 | 1.56 |
| COc1ccc2nc(Nc3nc4ccc(N(C)C)cc4s3)ccc2c1 | 24.1 |

I = COc1ccc2nc(Nc3ccc(C=O)o3)ccc2c1
II = COc1ccc(Nc2ccc3cc(OC/C=C/CF)ccc3n2)cn1
III = COc1ccc2cc(Nc3ccc(OC)nc3)ncc2c1
IV = COc1ccc(Nc2ccc3cc(OC/C=C/I)ccc3n2)cn1
Request: In this exercise, place the 4 molecules in ascending sequence of their recorded Ki. Put the labels in the requested order and write them down.
Response: I, II, IV, III

1 = COc1ccc(Nc2ccc3cc(OCc4ccncc4)ccc3n2)cn1
2 = COc1ccc(Nc2ccc3cc(OCCF)ccc3n2)cn1.Cl
3 = COc1ccc2nc(Nc3cc(-c4ccccc4)n[nH]3)ccc2c1
Request: Given 3 molecules, produce a descending ranking by Ki. Put the labels in the requested order and write them down.
Response: 3, 2, 1

P = COc1ccc(Nc2ccc3cc(Br)ccc3n2)cn1
Q = CCCOc1ccc(Nc2ccc3cc(OCCF)ccc3n2)cn1
R = COc1ccc(Nc2ccc3cc(OCc4cccnc4)ccc3n2)cn1.Cl
S = COc1ccc2nc(/C=C/c3nc4ccc(OC)cc4s3)ccc2c1
T = COc1ccc(Nc2nc3ccccc3cc2N)cn1
Request: Given 5 molecules, produce a descending ranking by Ki. Put the labels in the requested order and write them down.
Response: S, R, P, Q, T
(S: 129 nM, R: 30.4 nM, P: 18.7 nM, Q: 12.5 nM, T: 4.6 nM)

P = CCc1ccc(Nc2ccc3cc(OCCN4CCCCC4)ccc3n2)cn1
Q = COc1cccc(COc2ccc3nc(Nc4ccc(OC)nc4)ccc3c2)c1
Request: Sorting by Ki in descending order, would P or Q appear first? Answer = label.
Response: Q

I = COc1ccc(Nc2ccc3cc(OCCF)ccc3n2)cn1
II = COc1ccc(Nc2ccc3cc(OC(F)F)ccc3n2)cn1
Request: Sorting by Ki in descending order, would I or II appear first? Answer = label.
Response: I

1 = CCOc1ccc(Nc2ccc3cc(OCCF)ccc3n2)cn1.Cl
2 = CC(C)Oc1ccc(Nc2ccc3cc(OCCF)ccc3n2)cn1
Request: Sorting by Ki in descending order, would 1 or 2 appear first? Answer = label.
Response: 2

---

Target: α-synuclein fibrils amplified from PD tissue (Homo sapiens)
Experiment: Direct radioligand (homologous competitive) binding assay
Details: read-out: binding affinity for α-synuclein fibrils
assay-metric: Kd (nM)

P = COc1ccc(Nc2ccc3cc(OC/C=C/C[18F])ccc3n2)cn1 [[^18F]TZ80-156]
Q = CCCOc1ccc(Nc2ccc3cc(OCC[18F])ccc3n2)cn1 [[^18F]TZ83-41]
Request: For P and Q , which recorded Kd is lower? Answer = label.
Response: Q
(Q: 7.6 nM, P: 35 nM)

---

Molecular target: AD brain tissue (Homo sapiens, UniProt P05067)
Test: Competitive binding in AD brain tissue vs [3H]PiB
Details: AD brain tissue, radioligand [3H]PiB
Ki for assorted compounds

Known results for compounds:
| compound | Ki |
| --- | --- |
| COc1ccc(Nc2ccc3cc(Br)ccc3n2)cn1 [TZ64-105] | > 1000 nM |
| COc1ccc(Nc2ccc3cc(OCCF)ccc3n2)cn1.Cl [TZ80-55] | > 1000 nM |

Let us examine a further case.
Request: Please report the recorded Ki for CSc1ccc(Nc2ccc3cc(OC/C=C/I)ccc3n2)cn1 [TZ80-106] .
Response: > 1000 nM

---

Target: alpha-synuclein fibrils (Homo sapiens, UniProt P37840)
Assay: Competitive binding to alpha-synuclein fibrils vs [3H]BF2846 (site 9)
Details: maximal inhibition of [3H]BF2846 binding to alpha-synuclein fibrils
assay-metric: max % inh_site9 (%)

Known results for compounds:
| compound-structure-string | target-or-test-system | value-measured |
| --- | --- | --- |
| COc1ccc(Nc2ccc3cc(OCc4ccncc4)ccc3n2)cn1 | alpha-synuclein fibrils (Homo sapiens, UniProt P37840) | 70 |
| COc1ccc2nc(Nc3nc4ccc(N(C)C)cc4s3)ccc2c1 | alpha-synuclein fibrils (Homo sapiens, UniProt P37840) | 100 |
| COc1ccc(Nc2nc3ccccc3cc2N)cn1 | alpha-synuclein fibrils (Homo sapiens, UniProt P37840) | 20 |
| COc1ccc(Nc2ccc3cc(OC/C=C/I)ccc3n2)cn1 | alpha-synuclein fibrils (Homo sapiens, UniProt P37840) | 100 |
| COc1cccc(COc2ccc3nc(Nc4ccc(OC)nc4)ccc3c2)c1 | alpha-synuclein fibrils (Homo sapiens, UniProt P37840) | 100 |

1 = COc1ccc2nc(Nc3ccc(C=O)o3)ccc2c1
2 = CSc1ccc(Nc2ccc3cc(OC/C=C/I)ccc3n2)cn1
Request: Sorting by max % inh_site9 in descending order, would 1 or 2 appear first? Answer = label.
Response: 2

---

Target: alpha-synuclein fibrils (Homo sapiens)
Assay: Competitive binding to alpha-synuclein fibrils vs [3H]BF2846 (site 9)
Settings: maximal inhibition of [3H]BF2846 binding to alpha-synuclein fibrils
assay-metric: max % inh_site9 (%)

| compound-structure-string | max % inh_site9 (%) |
| --- | --- |
| COc1ccc(Nc2ccc3cc(OCc4cccnc4)ccc3n2)cn1.Cl | 70 |
| COc1ccc2nc(Nc3ccnc(OC)c3)ccc2c1.Cl | 70 |
| COc1ccc(Nc2ccc3ccc(N)cc3n2)cn1 | 50 |
| COc1ccc(Nc2ccc3cc(Br)ccc3n2)cn1 | 50 |
| CCOc1ccc(Nc2ccc3cc(OCCF)ccc3n2)cn1.Cl | 60 |
